Target: Human LDHA (Homo sapiens (Human), UniProt P00338)
Experiment: human LDHA primary biochemical assay (resazurin/diaphorase coupled, fluorescence)
Conditions: LDHA inhibitory activity, assay of Example 1; activity level classes
pIC50: −log10 of the molar value.
Measured pIC50, listed per entry.

Ask | Which pIC50 value is on record for `O=C(O)c1csc(-n2nc(-c3c(F)cccc3F)cc2O)n1` ?
Reply | < 4.24

Ask | Also `NS(=O)(=O)c1ccc(NCc2c(-c3ccccc3)n[nH]c2O)cc1` , if possible.
Reply | < 4.24

Ask | Let us now turn to `O=C(O)c1csc(-n2cc(-c3cccc(-c4ccccc4)c3)c3cccnc32)n1`
Reply | < 4.24

The record that follows has no pIC50 shown yet.
Ask | I am curious: what pIC50 value has been reported for `CCOC(=O)c1csc(-n2nc(-c3ccc(F)c(C#CC4CCCC4)c3)c(Cc3ccc(S(N)(=O)=O)c(F)c3)c2CC2CC2)n1` ?
Reply | < 4.24

###

Target: Human LDHA (Homo sapiens (Human))
Assay: human LDHA primary biochemical assay (resazurin/diaphorase coupled, fluorescence)
Details: LDHA inhibitory activity, activity level based on IC50 (Table 7)
In this section we review reported IC50 values for a set of molecules.

Ask | Recorded IC50 for NS(=O)(=O)c1ccc(Cc2c(-c3cccc(OCc4ccccc4)c3)nn(-c3nc(C(=O)O)cs3)c2CC2CC2)cc1 [Compound 339] , please?
Reply | < 100 nM

More entries:
Ask | Could you tell me which IC50 is on file for Cc1oc(=O)oc1COC(=O)c1csc(-n2nc(-c3ccc(F)c(C#CC4CCCC4)c3)c(Cc3ccc(S(N)(=O)=O)c(F)c3)c2CC2CC2)n1 [Compound 441] ?
Reply | > 57000 nM

Ask | What do we get for NS(=O)(=O)c1ccc(Cc2c(-c3ccc(F)c(OCc4cccc(F)c4)c3)nn(-c3nc(C(=O)O)cs3)c2CC2CC2)cc1F [Compound 528] ?
Reply | < 100 nM

Ask | What about N[S+](=O)([O-])c1ccc(Cc2c(-c3ccc(F)c(C#CCC4CCCO4)c3)nn(-c3nc(C(=O)O)cs3)c2CC2CC2)cc1F (stereo not shown) [Compound 421] ?
Reply | < 100 nM

Ask | Note, next up: N[S+](=O)([O-])c1ccc(Cc2c(C3CC3)nn(-c3nc(C(=O)O)cs3)c2-c2cccc(-c3ccc(F)cc3)c2)cc1F [Compound 348]
Reply | 1000 to 57000 nM

Ask | What would you report for NS(=O)(=O)c1ccc(Cc2c(-c3cccc(C4CCCC4)c3)nn(-c3nc(C(=O)O)cs3)c2CC2CC2)cc1 [Compound 372] ?
Reply | < 100 nM

Ask | Can you handle COc1cccc(-c2cccc(-c3nn(-c4nc(C(=O)O)cs4)c(C4CC4)c3Cc3ccc(S(N)(=O)=O)c(F)c3)c2)c1 [Compound 353] next?
Reply | < 100 nM

Ask | Consider next the molecule NS(=O)(=O)c1ccc(Cc2c(-c3ccc(F)c(C(F)(F)F)c3)nn(-c3nc(C(=O)O)cs3)c2CC2CC2)cc1F [Compound 542] in the same way.
Reply | < 100 nM

Ask | Proceed to N=[S+](N)([O-])c1ccc(Cc2c(-c3ccc(F)c(-c4cccc(F)c4)c3)nn(-c3nc(C(=O)O)cs3)c2CC2CC2)cc1F (stereo not shown) [Compound 371]
Reply | < 100 nM

Ask | Please do the same for N[S+](=O)([O-])c1ccc(Cc2c(CC3CC3)nn(-c3nc(C(=O)O)cs3)c2-c2cccc(OCc3ccccc3)c2)cc1 [Compound 342] as well.
Reply | 1000 to 57000 nM
